B1: library; a variant is named by its letters at N, in order (parent)
chain: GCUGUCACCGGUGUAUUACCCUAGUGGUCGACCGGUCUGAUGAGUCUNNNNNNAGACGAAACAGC

# Variants of: B1
# Protocol details: normalized RNA/DNA level with ligand (relative to sTRSVctl = 100) (log10 (% of sTRSVctl)); ligand: hypoxanthine (xanthine aptamer); higher = less ribozyme self-cleavage, higher mRNA level
# Measurement parameters: ligand concentration (+) RNA-Seq: 5 mM, HEK293T, reporter: mCherry (pCS4076), ligand present: yes
Listing: normalized RNA/DNA level with ligand (log10) of selected variants
Write the value as a bare number.

Past entries and their recorded results:
GACGGA	1.92
UCCCAA	1.92
CUUCAC	1.98
UUGGUU	1.99
AGAUGA	1.93
UGCCUA	1.94
CUAGGU	1.94
UGGACG	1.96
ACGCGC	1.88
UACCAG	1.87

Query: In one line, give reported normalized RNA/DNA level with ligand (log10) of the entry CGGCCA .
Reply: 1.96

Query: Check the records and state normalized RNA/DNA level with ligand (log10) for CAUACU
Reply: 1.92

Query: Give the reported normalized RNA/DNA level with ligand (log10) for this variant. CGCUGG
Reply: 1.89

Query: Give a short answer stating reported normalized RNA/DNA level with ligand (log10) for GACUGU .
Reply: 1.89

Query: State its normalized RNA/DNA level with ligand (log10) for this variant: CGGAAU
Reply: 1.81

Query: Identify normalized RNA/DNA level with ligand (log10) associated with the variant AUAUAG
Reply: 1.83

Query: Please give the documented normalized RNA/DNA level with ligand (log10) of UCGUUA
Reply: 1.96

Query: Give normalized RNA/DNA level with ligand (log10) for the following variant: ACUAGU
Reply: 1.88
